# Tested on: Molm14
# experimentalDetails: Antiproliferative activity, CellTiter-Blue
# Type: cell-based
# settings: read-out: IC50 Molm14; 72 h; listed as 4 (HSD1169)
propertyMeasured: IC50 (nM)
State just the number; it will be interpreted in nM.

Consider the compound `FC(F)(F)c1n[nH]cc1-c1nc2ccc3[nH]ncc3c2c2c1CCCC2` . State its measured IC50. 4.9
